Target: sim3-GFP (Arabidopsis thaliana) (UniProt P93002)
Sequence (P93002 other isoform, or with tags, fused parts or gaps): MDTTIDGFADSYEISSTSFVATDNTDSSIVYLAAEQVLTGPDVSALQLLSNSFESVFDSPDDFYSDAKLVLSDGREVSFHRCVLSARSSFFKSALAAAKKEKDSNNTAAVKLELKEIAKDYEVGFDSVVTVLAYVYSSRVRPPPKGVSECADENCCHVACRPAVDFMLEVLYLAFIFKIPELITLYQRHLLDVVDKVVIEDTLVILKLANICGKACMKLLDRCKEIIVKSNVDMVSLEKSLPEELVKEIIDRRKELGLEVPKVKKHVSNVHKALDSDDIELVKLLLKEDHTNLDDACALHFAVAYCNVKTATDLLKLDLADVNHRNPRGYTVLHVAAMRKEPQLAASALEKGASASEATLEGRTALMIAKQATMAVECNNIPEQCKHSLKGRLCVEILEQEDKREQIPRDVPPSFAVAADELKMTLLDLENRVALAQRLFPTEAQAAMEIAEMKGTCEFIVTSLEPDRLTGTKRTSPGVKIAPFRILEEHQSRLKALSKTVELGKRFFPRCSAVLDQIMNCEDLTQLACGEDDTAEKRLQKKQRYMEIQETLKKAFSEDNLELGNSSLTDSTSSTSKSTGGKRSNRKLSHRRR
Experiment: sim3-GFP IP, LC-MS/MS
# key: entry, value: Normalized Fold Change: SA vs Mock
measured.endpoint: Normalized Fold Change: SA vs Mock

binder	val
ATMEK4, ATMKK4, MKK4, mitogen-activated protein kinase kinase 4 (protein, UniProt O80397 1-366, looked up) Mitogen-activated protein kinase kinase 4: MRPIQSPPGVSVPVKSRPRRRPDLTLPLPQRDVSLAVPLPLPPTSGGSGGSSGSAPSSGGSASSTNTNSSIEAKNYSDLVRGNRIGSGAGGTVYKVIHRPSSRLYALKVIYGNHEETVRRQICREIEILRDVNHPNVVKCHEMFDQNGEIQVLLEFMDKGSLEGAHVWKEQQLADLSRQILSGLAYLHSRHIVHRDIKPSNLLINSAKNVKIADFGVSRILAQTMDPCNSSVGTIAYMSPERINTDLNQGKYDGYAGDIWSLGVSILEFYLGRFPFPVSRQGDWASLMCAICMSQPPEAPATASPEFRHFISCCLQREPGKRRSAMQLLQHPFILRASPSQNRSPQNLHQLLPPPRPLSSSSSPTT	2.62 fold
ISU1, SufE/NifU family protein (protein, UniProt O49627 51-167, looked up) Iron-sulfur cluster assembly protein 1: PNVGTGLVGAPACGDVMKLQIKVDEKTGQIVDARFKTFGCGSAIASSSVATEWVKGKAMEDVLTIKNTEIAKHLSLPPVKLHCSMLAEDAIKAAVKDYKEKRVKTNGAAAAGETTQA	3.44 fold
